- target.entity: BSA (UniProt P02769)
- Sequence (P02769 25-607 limits assumed): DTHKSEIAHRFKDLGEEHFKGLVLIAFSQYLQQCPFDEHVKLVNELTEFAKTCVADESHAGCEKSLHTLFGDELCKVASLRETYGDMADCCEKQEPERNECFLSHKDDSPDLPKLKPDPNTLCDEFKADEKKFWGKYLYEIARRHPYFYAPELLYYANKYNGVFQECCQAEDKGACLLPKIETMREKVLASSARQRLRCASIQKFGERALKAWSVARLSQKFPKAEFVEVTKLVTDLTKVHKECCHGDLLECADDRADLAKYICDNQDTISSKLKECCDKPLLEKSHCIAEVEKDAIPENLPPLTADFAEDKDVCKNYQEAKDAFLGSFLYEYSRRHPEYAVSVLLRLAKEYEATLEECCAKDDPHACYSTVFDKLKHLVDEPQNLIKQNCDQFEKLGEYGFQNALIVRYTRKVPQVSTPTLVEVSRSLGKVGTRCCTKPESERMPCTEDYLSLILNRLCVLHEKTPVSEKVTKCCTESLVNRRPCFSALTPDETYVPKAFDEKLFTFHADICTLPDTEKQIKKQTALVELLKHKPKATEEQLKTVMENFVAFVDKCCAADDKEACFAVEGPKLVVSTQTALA
- method.summary: scFv ELISA
OD450 overview
Reply with just the number (in OD450).

Here is how some binders turned out for OD450.
1. PcOxP_DB03_G10 (scFv, V domains shown, scFv in periplasmic extract) VH: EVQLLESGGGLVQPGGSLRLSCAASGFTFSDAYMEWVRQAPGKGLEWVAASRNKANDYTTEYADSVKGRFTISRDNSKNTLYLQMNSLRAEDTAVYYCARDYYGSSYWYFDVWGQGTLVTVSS VL: DIQMTQSPSSLSASVGDRVTITCTASESLYSSKHKVHYLAWYQQKPGKAPKLLIYGASNRQIGVPSRFSGSGSGTDFTLTISSLQPEDFATYYCAQFYTYPLTFGGGTKVEIK | 0.11
2. PcOxP_DB03_F07 (scFv, V domains shown, scFv in periplasmic extract) VH: EVQLLESGGGLVQPGGSLRLSCAASGFTQSDFYMEWVRQAPGKGLEWVAASRNKGNSYTTAYADSVKGRFTISRDNSKNTLYLQMNSLRAEDTAVYYCARDYYGSSYWYFDVWGQGTLVTVSS VL: DIVMTQSPDSLAVSLGERATINCTASESLYSGKHKVHYLAWYQQKPGQPPKLLIYGASNRYIGVPDRFSGSGSGTDFTLTISSLQAEDVAVYYCAQFYSYPLTFGGGTKVEIK | 0.08

# input for lookup
Note to self: OD450 recorded for PcOxP_DB04_D01 (scFv, V domains shown, scFv in periplasmic extract) VH: EVQLLESGGGLVQPGGSLRLSCAASGFTFSDYYMEWVRQAPGKGLEWVAASRNKGNDYTTAYADSVKGRFTISRDNSKNTLYLQMNSLRAEDTAVYYCARDYYGSSYWYFDVWGQGTLVTVSS VL: DIVMTQSPDSLAVSLGERATINCTASESLYSSKHKVHYLAWYQQKPGQPPKLLIYGASQRYIGVPDRFSGSGSGTDFTLTISSLQAEDVAVYYCAQFYSYPLTFGGGTKVEIK was 0.07

Ref: patent US20250320312A1
